Cited source for all entries: patent US20240400564A1

biological target: hERG (Homo sapiens); assay: Patch clamp assay (hERG tail currents, whole-cell); details: 30 μM compound
Sequence (Q12809 whole entry): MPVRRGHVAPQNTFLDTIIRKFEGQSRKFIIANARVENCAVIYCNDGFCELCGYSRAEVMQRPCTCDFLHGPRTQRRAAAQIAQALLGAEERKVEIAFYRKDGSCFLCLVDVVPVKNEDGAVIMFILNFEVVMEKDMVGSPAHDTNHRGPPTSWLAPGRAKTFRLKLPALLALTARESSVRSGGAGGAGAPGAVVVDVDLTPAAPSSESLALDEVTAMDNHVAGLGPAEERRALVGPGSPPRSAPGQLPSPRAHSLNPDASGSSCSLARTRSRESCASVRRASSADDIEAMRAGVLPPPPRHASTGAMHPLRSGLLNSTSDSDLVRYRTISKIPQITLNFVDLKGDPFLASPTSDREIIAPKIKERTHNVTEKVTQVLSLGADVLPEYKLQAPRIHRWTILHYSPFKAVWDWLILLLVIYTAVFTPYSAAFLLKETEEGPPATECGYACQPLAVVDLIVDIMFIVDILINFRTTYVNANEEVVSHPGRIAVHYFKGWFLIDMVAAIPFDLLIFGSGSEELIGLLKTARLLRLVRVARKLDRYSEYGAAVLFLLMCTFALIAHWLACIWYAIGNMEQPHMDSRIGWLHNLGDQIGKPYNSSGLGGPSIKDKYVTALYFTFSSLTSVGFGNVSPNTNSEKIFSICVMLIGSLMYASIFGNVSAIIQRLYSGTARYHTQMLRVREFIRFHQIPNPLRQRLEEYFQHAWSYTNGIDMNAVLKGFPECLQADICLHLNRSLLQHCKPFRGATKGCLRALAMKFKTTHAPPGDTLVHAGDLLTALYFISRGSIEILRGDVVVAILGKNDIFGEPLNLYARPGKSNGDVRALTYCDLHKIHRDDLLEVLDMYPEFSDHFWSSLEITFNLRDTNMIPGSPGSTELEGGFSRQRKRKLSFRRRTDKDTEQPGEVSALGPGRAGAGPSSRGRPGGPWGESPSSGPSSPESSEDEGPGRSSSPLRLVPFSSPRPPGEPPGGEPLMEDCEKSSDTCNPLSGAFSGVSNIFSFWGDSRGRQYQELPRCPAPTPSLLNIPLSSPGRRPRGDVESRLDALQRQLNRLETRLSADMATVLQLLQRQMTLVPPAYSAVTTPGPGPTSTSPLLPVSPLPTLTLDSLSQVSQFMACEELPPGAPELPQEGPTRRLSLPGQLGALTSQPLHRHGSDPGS
property name: hERG % Remaining

Before answering, review these 5 worked examples.
{"columns": ["compound smiles", "property name", "experimental value"],
 "data": [
  ["CCN(C(=O)c1cc(F)ccc1Oc1cncnc1N1CC2(CCN(C[C@@H]3CC[C@@H](NC(=O)NCC(F)(F)F)CO3)CC2)C1)C(C)C", "hERG % Remaining", "+ (<33%)"],
  ["CCN(C(=O)c1cc(F)ccc1Oc1cncnc1N1CC2(CCN(C[C@@H]3CC[C@@H](NS(=O)(=O)C4CC4)CO3)CC2)C1)C(C)C", "hERG % Remaining", "+++ (≥66%)"],
  ["CC(C)N(CC(F)F)C(=O)c1cc(F)ccc1Oc1cncnc1N1CC2(CCN(C[C@@H]3CC[C@@H](NS(=O)(=O)c4nn(C)cc4F)CO3)CC2)C1", "hERG % Remaining", "++ (233% and ≤66%)"],
  ["CCNS(=O)(=O)N[C@@H]1CC[C@@H](CN2CCC3(CC2)CN(c2ncncc2Oc2ccc(F)cc2C(=O)N(CC(F)F)C(C)C)C3)OC1", "hERG % Remaining", "+++ (≥66%)"],
  ["CCS(=O)(=O)N[C@@H]1CC[C@@H](CN2CCC3(CC2)CN(c2ncncc2Oc2ccc(F)cc2C(=O)N(C(C)C)[C@@H]2CC[C@@H]2O)C3)OC1", "hERG % Remaining", "++ (233% and ≤66%)"]
]}

Lookup: Answer with the recorded hERG % Remaining for the compound listed here: CCN(C(=O)c1cc(F)ccc1Oc1cncnc1N1CC2(CCN(C[C@@H]3CC[C@@H](NS(=O)(=O)c4ccc(OC)cc4)CO3)CC2)C1)C(C)C
Found: + (<33%)

Lookup: Answer with the recorded hERG % Remaining for the compound listed here: C[C@@H]1COC[C@@H](C)N1C(=O)c1cc(F)ccc1Oc1cncnc1N1CC2(CCN(C[C@@H]3CC[C@@H](NS(=O)(=O)N(C)C)CO3)CC2)C1
Found: +++ (≥66%)

Lookup: Answer with the recorded hERG % Remaining for the compound listed here: CCNS(=O)(=O)N[C@@H]1CC[C@@H](CN2CCC3(CC2)CN(c2ncncc2Oc2ccc(F)cc2C(=O)N2[C@H](C)COC[C@H]2C)C3)OC1
Found: +++ (≥66%)

Lookup: Answer with the recorded hERG % Remaining for the compound listed here: CC(C)N(C(=O)c1cc(F)ccc1Oc1cncnc1N1CC2(CCN(C[C@@H]3CC[C@@H](NS(=O)(=O)C4COC4)CO3)CC2)C1)C(C)C
Found: +++ (≥66%)

Lookup: Answer with the recorded hERG % Remaining for the compound listed here: CC(C)N(C(=O)c1cc(F)ccc1Oc1cncnc1N1CC2(CCN(C[C@@H]3CC[C@@H](NS(=O)(=O)C4CC4)CO3)CC2)C1)C1CC(F)(F)C1
Found: + (<33%)

Lookup: Answer with the recorded hERG % Remaining for the compound listed here: CCNS(=O)(=O)N[C@@H]1CC[C@@H](CN2CCC3(CC2)CN(c2ncncc2Oc2ccc(F)cc2C(=O)N(CC(F)(F)F)C(C)C)C3)OC1
Found: +++ (≥66%)

Lookup: Answer with the recorded hERG % Remaining for the compound listed here: CCN(CC)S(=O)(=O)N[C@@H]1CC[C@@H](CN2CCC3(CC2)CN(c2ncncc2Oc2ccc(F)cc2C(=O)N(C(C)C)[C@H]2CCOC2)C3)OC1
Found: + (<33%)
